The reported numbers originate from PubChem BioAssay (NCI).

Test system: SR leukemia
Test: NCI tumour cell line growth inhibition, 48 h
Parameter TGI: see the listing below.

Use these answered entries as a reference point.
{"molecule": "COc1ccc(-c2ccc(-c3ccc(C(=N)N)o3)o2)cc1", "data_value": "2.79 µM"}
{"molecule": "CC(C)(C)OC(=O)N1C(c2cccnc2)=CC[C@H]2C3CC=C(c4cccnc4)[C@@]3(C)CC[C@@H]21 (stereo partly drawn)", "data_value": "22.2 µM"}
{"molecule": "Cc1cccc(C)c1NC(=O)C(=O)Nn1c(NN)nc2ccccc2c1=O", "data_value": "> 100 µM"}
{"molecule": "Cc1ccnc(NC(NC(=O)c2ccccc2)(C(F)(F)F)C(F)(F)F)c1", "data_value": "> 100 µM"}
{"molecule": "CCOC(=O)CCC(NC(=O)c1ccc(OCc2ccc3nc(-c4ccccc4)c(Cl)nc3c2)cc1)C(=O)OCC (stereo not drawn)", "data_value": "> 31.6 µM"}

Reported TGI for O=c1c2cc(Cl)ccc2sc2cccc(Cl)c12 was > 100 µM

Reported TGI for COC(=O)/C=C/c1cc2c(cc1-c1c(C(=O)O)cc(OC)c(OC)c1OC)OCO2 was > 10 µM

Reported TGI for Cc1cc(=O)oc2c(CNC(Cc3ccccc3)C(=O)O)c(O)ccc12 (stereo not drawn) was > 100 µM

Reported TGI for CC(=O)C1CC[C@@H]2[C@H](CC[C@]3(C)[C@@H](O)CC[C@@H]23)[C@H]1C(=O)O (stereo partly drawn) was > 100 µM

Reported TGI for O=C(NC12CC3CC(CC(C3)C1)C2)C(=O)c1c[nH]c2ccccc12 was 48.7 µM

Reported TGI for CCN1CCC(O)(c2ccc(Cl)cc2)C(C(=O)c2ccc(Cl)cc2)C1 (stereo not drawn) was > 100 µM

Reported TGI for O=C1c2ccccc2C(=O)N1CC(O)COc1cccc2ccccc12 (stereo not drawn) was > 100 µM

Reported TGI for N[C@H]1CCCC[C@@H]1N1C(=O)c2ccccc2C1(O)c1ccc(Cl)cc1 (stereo partly drawn) was 29.9 µM

Reported TGI for CN(Cc1cc(C(C)(C)C)cc(Br)c1O)Cc1cc(C(C)(C)C)cc(Br)c1O was 12.2 µM

Reported TGI for Cn1c2ccccc2c(=O)c2cccc(C(=O)NC(CCC(N)=O)C(=O)O)c21 (stereo not drawn) was > 100 µM

Reported TGI for O=C(Nc1ccc([N+](=O)[O-])cc1Cl)c1cccc([N+](=O)[O-])c1O was 18.9 µM

Reported TGI for C#CCOc1cccc(Nc2ncnc3cc(NC(=O)CCl)ccc23)c1 was 5.59 µM
